Measured thermodynamic solubility S 7.4 values are reported for all entries that follow.
# protocolText: Thermodynamic solubility at pH 7.4
# Assay type: physicochemical
# conditionNotes: Cu(II) complexes; pH 7.40; 20 mM HEPES; 25.0°C
The reply should be a number in µM, with the unit left off.

• [Cu+2].[O-]C(=NN=Cc1ccc2cccc([O-])c2n1)c1ccncc1 [Complex 8, [Cu(L^8)]3] = 3.3

Next compound, thermodynamic solubility S 7.4 to be filled in.
Exercise: Could you share which thermodynamic solubility S 7.4 value was measured for CC(=O)[O-].Cc1ccc(C(=O)NN=Cc2ccc3cccc([O-])c3n2)cc1.[Cu+2] [Complex 4, [Cu(HL^4)(AcO)]] ?
Key: 4.0
